Reported INHIBITION values are given for each entry in this list.
system: Plasmodium berghei; assay: Screen against P. berghei liver stage (PbLuc), transformed with Luciferase, at 10uM; format: functional, HepG2; settings: tested at 10 uM
In all, about 69,000 compounds went through this assay and about 8,600 (12%) showed an effect of 50% or more. The entries come from a sample that favours strong results as a whole.
Give just the numeric value; % need not be written.

COMPOUND	RESULT
FC(F)Oc1ccccc1CN1CCCC(c2nccn2CC2CC2)C1 (configuration not stated)	74.5
O=C1CC(NCc2ccccn2)CN1CCc1ccc(F)cc1 (configuration not stated)	17.8
CCCNC(=O)C1(Cc2cc(-c3ccccc3)no2)CCN(C(C)=O)C1 (configuration not stated)	-3.94

So what does the record say about INHIBITION for C=C(C)COc1ccccc1CN1CCC(C(=O)NCC)C1 (configuration not stated) ?
3.06

So what does the record say about INHIBITION for "c1cncc(COCc2nnn3c2CN(Cc2ccsc2)CC3)c1" ?
-9.26

So what does the record say about INHIBITION for "O=C(O)CNC(=O)Cc1csc(-c2ccccc2F)n1" ?
32.8

So what does the record say about INHIBITION for O=C(COCC(F)(F)C(F)F)N1CCC2(CCCN(CC3CC3)C2=O)C1 (configuration not stated) ?
27.8

So what does the record say about INHIBITION for CCCc1nc(C(C)(C)NC(=O)C2CC(=O)N(CCOC)C2)no1 (configuration not stated) ?
-3.2

So what does the record say about INHIBITION for COc1cc(CN(C)C(C)c2ccccn2)cc2c1OCO2 (configuration not stated) ?
58.6

So what does the record say about INHIBITION for Cc1cccc2nc(CN3CCCC3Cn3cncn3)cn12 (configuration not stated) ?
5.03

So what does the record say about INHIBITION for "COc1cc(CN(CCCN(C)C)Cc2ccccn2)cc2c1OCO2" ?
18.9

So what does the record say about INHIBITION for CC(C)N1CCCC2(CCN(C(=O)COCC(F)(F)C(F)F)C2)C1=O (configuration not stated) ?
50.2
